These data points were gathered from ChEMBL document CHEMBL5321234.

- ASSAY SUMMARY: MRT (0 to t) in ICR mouse at 10 mg/kg, po measured upto 24 hrs by LC-MS/MS analysis
- Format: ADME, organism-based
- PROTOCOL CONDITIONS: in vivo
Could you please report measured MRT last at 24 h for the items listed next?
Numbers only, in h.

CNc1nc2ccccc2n1-c1nc(N2CCOC[C@H]2C)c2scc(S(C)(=O)=O)c2n1 ... 5.3

We now examine a further compound.
Reported MRT last at 24 h for `C[C@@H]1COCCN1c1nc(-n2c(N)nc3ccccc32)nc2c(S(C)(=O)=O)csc12` was 1.03

###

Could you please report measured IC50 for the items listed next?
- TARGET OR TEST SYSTEM: Serine/threonine-protein kinase ATR (Homo sapiens, UniProt Q13535)
- Sequence (Q13535 whole entry): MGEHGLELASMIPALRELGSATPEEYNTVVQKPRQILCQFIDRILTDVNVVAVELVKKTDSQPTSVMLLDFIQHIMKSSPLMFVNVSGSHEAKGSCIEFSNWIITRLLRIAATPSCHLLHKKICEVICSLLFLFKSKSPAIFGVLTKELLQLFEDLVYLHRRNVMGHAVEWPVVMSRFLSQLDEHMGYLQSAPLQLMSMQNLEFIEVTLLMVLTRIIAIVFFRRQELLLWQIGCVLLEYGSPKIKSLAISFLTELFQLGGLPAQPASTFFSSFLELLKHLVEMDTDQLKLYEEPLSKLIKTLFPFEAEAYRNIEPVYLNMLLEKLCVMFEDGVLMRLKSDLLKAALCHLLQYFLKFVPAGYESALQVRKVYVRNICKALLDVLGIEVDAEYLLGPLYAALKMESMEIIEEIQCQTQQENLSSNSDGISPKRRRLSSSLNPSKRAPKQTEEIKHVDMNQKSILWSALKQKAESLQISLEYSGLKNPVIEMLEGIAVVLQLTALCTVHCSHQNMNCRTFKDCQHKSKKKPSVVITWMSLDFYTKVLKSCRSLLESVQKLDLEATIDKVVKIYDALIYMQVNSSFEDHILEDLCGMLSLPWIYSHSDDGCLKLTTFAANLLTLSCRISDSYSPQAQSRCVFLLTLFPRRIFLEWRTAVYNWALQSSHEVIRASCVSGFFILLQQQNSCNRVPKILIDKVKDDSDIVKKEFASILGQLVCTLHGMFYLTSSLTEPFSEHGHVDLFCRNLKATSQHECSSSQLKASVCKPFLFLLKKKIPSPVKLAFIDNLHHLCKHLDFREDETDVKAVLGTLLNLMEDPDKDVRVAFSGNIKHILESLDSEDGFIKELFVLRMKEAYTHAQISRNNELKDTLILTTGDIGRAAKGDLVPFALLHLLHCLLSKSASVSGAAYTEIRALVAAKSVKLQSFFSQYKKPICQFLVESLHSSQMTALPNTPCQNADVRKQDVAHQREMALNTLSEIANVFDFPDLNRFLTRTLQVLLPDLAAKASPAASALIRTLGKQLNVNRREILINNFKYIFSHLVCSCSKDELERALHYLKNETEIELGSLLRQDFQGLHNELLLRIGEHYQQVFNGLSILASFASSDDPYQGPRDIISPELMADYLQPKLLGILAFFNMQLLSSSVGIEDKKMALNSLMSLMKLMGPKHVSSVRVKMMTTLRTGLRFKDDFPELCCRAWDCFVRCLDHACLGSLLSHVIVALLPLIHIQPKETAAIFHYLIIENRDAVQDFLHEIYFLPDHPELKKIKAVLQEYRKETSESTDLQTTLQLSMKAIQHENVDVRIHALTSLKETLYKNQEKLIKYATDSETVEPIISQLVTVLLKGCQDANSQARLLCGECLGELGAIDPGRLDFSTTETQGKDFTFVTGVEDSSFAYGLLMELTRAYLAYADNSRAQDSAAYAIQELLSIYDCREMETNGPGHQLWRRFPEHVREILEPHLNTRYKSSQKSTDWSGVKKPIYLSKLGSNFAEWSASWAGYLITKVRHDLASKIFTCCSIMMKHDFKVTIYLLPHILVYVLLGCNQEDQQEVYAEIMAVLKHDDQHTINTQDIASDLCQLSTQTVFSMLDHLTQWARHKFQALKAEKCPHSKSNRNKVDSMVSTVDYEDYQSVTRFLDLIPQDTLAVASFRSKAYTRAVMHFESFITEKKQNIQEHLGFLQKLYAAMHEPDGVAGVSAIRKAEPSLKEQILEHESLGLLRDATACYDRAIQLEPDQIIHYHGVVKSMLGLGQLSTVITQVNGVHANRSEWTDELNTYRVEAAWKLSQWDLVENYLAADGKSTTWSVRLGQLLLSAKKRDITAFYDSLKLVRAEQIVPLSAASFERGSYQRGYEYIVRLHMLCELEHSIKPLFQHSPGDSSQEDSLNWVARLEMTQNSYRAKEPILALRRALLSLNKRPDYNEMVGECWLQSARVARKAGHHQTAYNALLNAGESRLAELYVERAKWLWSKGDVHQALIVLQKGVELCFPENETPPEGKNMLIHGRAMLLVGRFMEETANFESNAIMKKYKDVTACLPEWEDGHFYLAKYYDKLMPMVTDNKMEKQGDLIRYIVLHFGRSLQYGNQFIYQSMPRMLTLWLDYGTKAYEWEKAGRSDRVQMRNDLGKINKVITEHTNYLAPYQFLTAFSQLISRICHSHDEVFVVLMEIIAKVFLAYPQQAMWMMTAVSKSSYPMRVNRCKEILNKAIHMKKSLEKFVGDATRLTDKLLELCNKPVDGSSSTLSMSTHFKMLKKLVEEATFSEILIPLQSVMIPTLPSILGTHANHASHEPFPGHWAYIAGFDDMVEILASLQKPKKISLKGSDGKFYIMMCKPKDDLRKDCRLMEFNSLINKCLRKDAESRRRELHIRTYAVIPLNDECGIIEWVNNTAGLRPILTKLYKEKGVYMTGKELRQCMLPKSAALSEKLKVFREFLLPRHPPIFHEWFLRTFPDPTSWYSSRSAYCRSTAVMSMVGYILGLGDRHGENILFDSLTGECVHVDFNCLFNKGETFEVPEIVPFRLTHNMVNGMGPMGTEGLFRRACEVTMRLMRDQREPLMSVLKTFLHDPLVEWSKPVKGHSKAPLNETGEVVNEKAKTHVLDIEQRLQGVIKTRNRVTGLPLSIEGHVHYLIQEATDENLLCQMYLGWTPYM
- ASSAY SUMMARY: Inhibition of ATR (unknown origin)
One number for each entry, in nM.

Your task in this section: give IC50 for each listed record.
1. C[C@@H]1COCCN1c1nc(-c2cccc3[nH]ccc23)nc2c(S(C)(=O)=O)csc12
2. C[C@@H]1COCCN1c1nc(-c2cc(Cl)cc3[nH]ccc23)nc2c(S(C)(=O)=O)csc12

Output:
1: 3.1; 2: 3.6
